# testName: Cytotoxicity against African green monkey Vero cells assessed as reduction in cell viability after 48 hrs by SRB assay
# Type: cell-based
# recordedConditions: chlorocebus sabaeus
outcomeMeasure: CC50 at 48 h

Please review the entries below; each comes with its answer.
C[C@]12CC[C@H](n3cc(CO[C@@H]4O[C@H](CO)[C@@H](O[C@H]5O[C@H](CO)[C@@H](O)[C@H](O)[C@H]5O)[C@H](O)[C@H]4O)nn3)C[C@H]1CC[C@@H]1[C@@H]2CC[C@]2(C)[C@@H](C3=CC(=O)OC3)CC[C@]12O    147 µM
C[C@]12CC[C@H](n3cc(CO[C@@H]4O[C@H](CO)[C@H](O)[C@H](O)[C@H]4O)nn3)C[C@H]1CC[C@@H]1[C@@H]2CC[C@]2(C)[C@@H](C3=CC(=O)OC3)CC[C@]12O    290 µM
C[C@]12CC[C@H](NC(=O)CCl)C[C@H]1CC[C@@H]1[C@@H]2CC[C@]2(C)[C@@H](C3=CC(=O)OC3)CC[C@]12O    84 µM
CC(=O)OC[C@H]1O[C@H](O[C@H]2[C@H](OC(C)=O)[C@@H](OC(C)=O)[C@H](OCc3cn([C@H]4CC[C@@]5(C)[C@H](CC[C@@H]6[C@@H]5CC[C@]5(C)[C@@H](C7=CC(=O)OC7)CC[C@]65O)C4)nn3)O[C@@H]2COC(C)=O)[C@H](OC(C)=O)[C@@H](OC(C)=O)[C@@H]1OC(C)=O    181 µM

API: the following record is the query input.
Indicate its recorded CC50 at 48 h; the compound in question is C[C@]12CC[C@H](NC(=O)CNc3ccc(C#N)cc3)C[C@H]1CC[C@@H]1[C@@H]2CC[C@]2(C)[C@@H](C3=CC(=O)OC3)CC[C@]12O
> 300 µM

Entry source: ChEMBL document CHEMBL4390653
